species on record: Rattus norvegicus; test: DrugMatrix - Regimen: Daily Repeat; format: toxicity, organism-based, Sprague-Dawley; design: regimen Daily Repeat, gender Male, age 6-8 weeks; settings: in vivo, po, 0 mg/kg, 120 h, tissue Plasma, route oral GAVAGE, dose level Control, time 5 day, vehicle 100 % WATER
measuredParameter: CREATININE (mg/dL)
Respond numerically; units are mg/dL and should not be typed.

Lookup result for CNS(=O)(=O)Cc1ccc2[nH]cc(CCN(C)C)c2c1 ; measured CREATININE: 0.17

Lookup result for O=C(O)c1cc(=O)c2c(OCC(O)COc3cccc4oc(C(=O)O)cc(=O)c34)cccc2o1 [CROMOLYN] ; measured CREATININE: 0.6

Lookup result for OCCO [ETHYLENE GLYCOL] ; measured CREATININE: 0.13

Lookup result for Nc1ccc(S(=O)(=O)Nc2ncccn2)cc1 [SULFADIAZINE] ; measured CREATININE: 0.58

Lookup result for CN1C2CCCC1CC(NC(=O)c1nn(C)c3ccccc13)C2 (stereo not given) [GRANISETRON] ; measured CREATININE: 0.2

###

Listed here are molecules together with their documented HEMATOCRIT.
species on record: Rattus norvegicus; assay: DrugMatrix - Regimen: Daily Repeat; type: toxicity, organism-based, Sprague-Dawley; set-up: regimen Daily Repeat, gender Male, age 6-8 weeks; details: in vivo, po, 0 mg/kg, 72 h, tissue Blood, route oral GAVAGE, dose level Control, time 3 day, vehicle 100 % WATER
Respond numerically; units are % and should not be typed.

Worked cases, answers included:
molecule	unitsText	HEMATOCRIT
CCN[C@@H](C)Cc1cccc(C(F)(F)F)c1 [DEXFENFLURAMINE]	%	35.07
CC[C@H]1OC(=O)[C@H](C)[C@@H](O[C@H]2C[C@@](C)(OC)[C@@H](O)[C@H](C)O2)[C@H](C)[C@@H](O[C@@H]2O[C@H](C)C[C@H](N(C)C)[C@H]2O)[C@](C)(OC)C[C@@H](C)C(=O)[C@H](C)[C@@H](O)[C@]1(C)O [CLARITHROMYCIN]	%	34.5
CNS(=O)(=O)Cc1ccc2[nH]cc(CCN(C)C)c2c1	%	35.33
CCOC(N)=O	%	33.07
CCN(CC)CC#CCOC(=O)C(O)(c1ccccc1)C1CCCCC1 (stereo not drawn) [OXYBUTYNIN]	%	35.6

Lookup result for CC(C)(C)NC[C@H](O)COc1nsnc1N1CCOCC1 [TIMOLOL] ; measured HEMATOCRIT: 34.5

Lookup result for O=C(O)c1cc(=O)c2c(OCC(O)COc3cccc4oc(C(=O)O)cc(=O)c34)cccc2o1 [CROMOLYN] ; measured HEMATOCRIT: 36.47

Lookup result for O=C(O)c1cccnc1 [NIACIN] ; measured HEMATOCRIT: 32.43

###

organism: Rattus norvegicus; experiment: DrugMatrix - Regimen: Daily Repeat; type: toxicity, organism-based, Sprague-Dawley; parameters: regimen Daily Repeat, gender Male, age 6-8 weeks; details: in vivo, po, 0 mg/kg, 72 h, tissue Plasma, route oral GAVAGE, dose level Control, time 3 day, vehicle .5 % CMC
measuredParameter: TOTAL PROTEIN (G/DL)
Respond numerically; units are G/DL and should not be typed.

Worked cases, answers included:
compound	unitsText	TOTAL PROTEIN
CC(=O)O[C@]1(C(C)=O)CC[C@H]2[C@@H]3C=C(Cl)C4=CC(=O)[C@@H]5C[C@@H]5[C@]4(C)[C@H]3CC[C@@]21C [CYPROTERONE ACETATE]	G/DL	5.75
C[C@@H]1CC[C@H]2[C@@H](C)C(=O)O[C@@H]3O[C@@]4(C)CC[C@@H]1[C@]32OO4 [ARTEMISININ]	G/DL	5.9
C[C@@H](O)[C@H]1C(=O)N2C(C(=O)O)=C(S[C@@H]3CN[C@H](C(=O)N(C)C)C3)[C@H](C)[C@H]12 [MEROPENEM]	G/DL	5.98
CN1C(=O)CN=C(c2ccccc2)c2cc(Cl)ccc21 [DIAZEPAM]	G/DL	5.77
CCOC(=O)[C@H](CCc1ccccc1)N[C@@H](C)C(=O)N1Cc2ccccc2C[C@H]1C(=O)O	G/DL	5.75

With those in mind, consider the next compound.
Lookup result for Clc1cc2c(cc1Cl)Oc1cc(Cl)c(Cl)cc1O2 [2,3,7,8-TETRACHLORODIBENZO-P-DIOXIN] ; measured TOTAL PROTEIN: 6.18

###

Listed here are compounds together with their documented MEAN CORPUSCULAR VOLUME.
species: Rattus norvegicus; assay: DrugMatrix - Regimen: Daily Repeat; format: toxicity, organism-based, Sprague-Dawley; parameters: regimen Daily Repeat, gender Male, age 6-8 weeks; details: in vivo, po, 0 mg/kg, 72 h, tissue Blood, route oral GAVAGE, dose level Control, time 3 day, vehicle 100 % SALINE
Respond numerically; units are fL and should not be typed.

compound	measuredParameter	reportedMeasurement
Oc1ccccc1O	MEAN CORPUSCULAR VOLUME	62.87
CC(=O)OCC(CCn1cnc2cnc(N)nc21)COC(C)=O	MEAN CORPUSCULAR VOLUME	62.78
CCCc1nn(C)c2c(=O)[nH]c(-c3cc(S(=O)(=O)N4CCN(C)CC4)ccc3OCC)nc12	MEAN CORPUSCULAR VOLUME	62.78

With those in mind, consider the next compound.
Lookup result for Cc1cc(CC(=O)O)n(C)c1C(=O)c1ccc(Cl)cc1 [ZOMEPIRAC] ; measured MEAN CORPUSCULAR VOLUME: 62.87

###

species on record: Rattus norvegicus; experiment: DrugMatrix - Regimen: Daily Repeat; assay type: toxicity, organism-based, Sprague-Dawley; set-up: regimen Daily Repeat, gender Male, age 6-8 weeks; settings: in vivo, po, 0 mg/kg, 72 h, tissue Plasma, route oral GAVAGE, dose level Control, time 3 day, vehicle .5 % CMC
Listed here are compounds together with their documented ALANINE AMINOTRANSFERASE.
Respond numerically; units are u/L and should not be typed.

Worked cases, answers included:
compound	measuredParameter	unitsText	reportedMeasurement
CC(C)(Sc1cc(C(C)(C)C)c(O)c(C(C)(C)C)c1)Sc1cc(C(C)(C)C)c(O)c(C(C)(C)C)c1	ALANINE AMINOTRANSFERASE	u/L	43.83
O=c1cc(-c2ccccc2)oc2ccc3ccccc3c12	ALANINE AMINOTRANSFERASE	u/L	44.5
CC[C@]1(O)CC[C@H]2[C@@H]3CCC4=CCCC[C@@H]4[C@H]3CC[C@@]21C	ALANINE AMINOTRANSFERASE	u/L	42.83

With those in mind, consider the next compound.
Lookup result for Clc1cc2c(cc1Cl)Oc1cc(Cl)c(Cl)cc1O2 ; measured ALANINE AMINOTRANSFERASE: 44.5

###

organism: Rattus norvegicus; assay: DrugMatrix - Regimen: Daily Repeat; assay type: toxicity, organism-based, Sprague-Dawley; set-up: regimen Daily Repeat, gender Male, age 6-8 weeks; conditions: in vivo, po, 0 mg/kg, 120 h, tissue Blood, route oral GAVAGE, dose level Control, time 5 day, vehicle .5 % CMC
measuredParameter: MEAN CORPUSCULAR HEMOGLOBIN CONCENTRATION (G/DL)
Respond numerically; units are G/DL and should not be typed.

compound	reportedMeasurement
CC(=O)O[C@]1(C(C)=O)CC[C@H]2[C@@H]3C=C(Cl)C4=CC(=O)[C@@H]5C[C@@H]5[C@]4(C)[C@H]3CC[C@@]21C [CYPROTERONE ACETATE]	40.35
C[C@@H](O)[C@H]1C(=O)N2C(C(=O)O)=C(S[C@@H]3CN[C@H](C(=O)N(C)C)C3)[C@H](C)[C@H]12	37.47
Nc1cccc(Cl)c1	31.25
CO[C@H]1C[C@@H]2CC[C@@H](C)[C@@](O)(O2)C(=O)C(=O)N2CCCC[C@H]2C(=O)O[C@H]([C@H](C)C[C@@H]2CC[C@@H](O)[C@H](OC)C2)CC(=O)[C@H](C)/C=C(\C)[C@@H](O)[C@@H](OC)C(=O)[C@H](C)C[C@H](C)/C=C/C=C/C=C/1C	39.22

Lookup result for CC[C@]1(O)CC[C@H]2[C@@H]3CCC4=CCCC[C@@H]4[C@H]3CC[C@@]21C ; measured MEAN CORPUSCULAR HEMOGLOBIN CONCENTRATION: 31.62

Lookup result for COc1ccccc1OCC(O)COC(N)=O (configuration not stated) ; measured MEAN CORPUSCULAR HEMOGLOBIN CONCENTRATION: 38.9

Lookup result for C[C@]12C/C(=C/O)C(=O)C[C@@H]1CC[C@@H]1[C@@H]2CC[C@@]2(C)[C@H]1CC[C@]2(C)O ; measured MEAN CORPUSCULAR HEMOGLOBIN CONCENTRATION: 31.02

###

organism: Rattus norvegicus; assay: DrugMatrix - Regimen: Daily Repeat; type: toxicity, organism-based, Sprague-Dawley; parameters: regimen Daily Repeat, gender Male, age 6-8 weeks; conditions: in vivo, po, 0 mg/kg, 120 h, tissue Plasma, route oral GAVAGE, dose level Control, time 5 day, vehicle .5 % CMC
measuredParameter: CHLORIDE
Quick note: number first, unit second.

compound	measuredParameter	reportedMeasurement
CN1C(=O)CN=C(c2ccccc2)c2cc(Cl)ccc21 [DIAZEPAM]	CHLORIDE	99 MEQ/L

Lookup result for C[C@@H](O)[C@H]1C(=O)N2C(C(=O)O)=C(S[C@@H]3CN[C@H](C(=O)N(C)C)C3)[C@H](C)[C@H]12 [MEROPENEM] ; measured CHLORIDE: 101 MEQ/L

Lookup result for C[C@@H]1CC[C@H]2[C@@H](C)C(=O)O[C@@H]3O[C@@]4(C)CC[C@@H]1[C@]32OO4 [ARTEMISININ] ; measured CHLORIDE: 101 MEQ/L

Lookup result for CCOC(=O)[C@H](CCc1ccccc1)N[C@@H](C)C(=O)N1Cc2ccccc2C[C@H]1C(=O)O ; measured CHLORIDE: 101.5 MEQ/L
